pKi: −log10 of the molar value.
The following molecules have recorded pKi on uPA (Homo sapiens, UniProt P00749).
observation-type: pKi

{"molecule": "CC(=O)NCC(=O)NC(C(=O)NC(C)C(=O)NC(CCCNC(=N)N)C(=O)c1nc2ccccc2s1)C(C)O [Compound 14a, Ac-Gly-L-Thr-L-Ala-L-Arg-kbt]", "observation-type": "pKi", "reported-measurement": 6.85}
{"molecule": "CC(=O)NCC(=O)NC(C(=O)NC(C)C(=O)NC(CCCNC(=N)N)C(=O)c1nc2ccc(F)cc2s1)C(C)O (stereo not drawn) [Compound 14b]", "observation-type": "pKi", "reported-measurement": 6.41}
{"molecule": "CC(=O)NCC(=O)NC(C(=O)NC(C)C(=O)NC(CCCNC(=N)N)C(=O)c1nc2ccc(Br)cc2s1)C(C)O (stereo not drawn) [Compound 14d]", "observation-type": "pKi", "reported-measurement": 7.22}
{"molecule": "CC(=O)NCC(=O)NC(C(=O)NC(C)C(=O)NC(CC1CCC(NC(=N)N)CC1)C(=O)c1nc2ccccc2s1)C(C)O (stereo not drawn) [Compound 38]", "observation-type": "pKi", "reported-measurement": 7.41}

I: CC(=O)N[C@@H](CC(N)=O)C(=O)N[C@@H](CC1CCCCC1)C(=O)N[C@@H](Cc1ccc(NC(=N)N)cc1)C(=O)c1nc2ccccc2s1 [Compound 32]
II: CC(=O)NCC(=O)NC(C(=O)NC(C)C(=O)NC(CCCNC(=N)N)C(=O)c1nc2ccc(Cl)cc2s1)C(C)O (stereo not drawn) [Compound 14c]
III: CC(=O)N[C@@H](CC(N)=O)C(=O)N1CCC[C@H]1C(=O)N[C@@H](Cc1ccc(NC(=N)N)cc1)C(=O)c1nc2ccccc2s1 [Compound 30]
IV: COc1ccc2nc(C(=O)C(CCCNC(=N)N)NC(=O)C(C)NC(=O)C(NC(=O)CNC(C)=O)C(C)O)sc2c1 (stereo not drawn) [Compound 14e]
V: CC(=O)N[C@@H](Cc1ccccc1)C(=O)N[C@@H](Cc1ccc(NC(=N)N)cc1)C(=O)c1nc2ccccc2s1 [Compound 33]
Lookup: Parameters: sort_field (pKi), sort_dir (desc). Sort the labels as requested; that list is your answer.
Found: II, IV, III, I, V
(II: 7.09, IV: 6.75, III: 6.32, I: 5.57, V: 5.28)

---

- test-target: tPA (Homo sapiens)
- Construct: purchased Sigma Aldrich
- Sequence (P00750 36-562): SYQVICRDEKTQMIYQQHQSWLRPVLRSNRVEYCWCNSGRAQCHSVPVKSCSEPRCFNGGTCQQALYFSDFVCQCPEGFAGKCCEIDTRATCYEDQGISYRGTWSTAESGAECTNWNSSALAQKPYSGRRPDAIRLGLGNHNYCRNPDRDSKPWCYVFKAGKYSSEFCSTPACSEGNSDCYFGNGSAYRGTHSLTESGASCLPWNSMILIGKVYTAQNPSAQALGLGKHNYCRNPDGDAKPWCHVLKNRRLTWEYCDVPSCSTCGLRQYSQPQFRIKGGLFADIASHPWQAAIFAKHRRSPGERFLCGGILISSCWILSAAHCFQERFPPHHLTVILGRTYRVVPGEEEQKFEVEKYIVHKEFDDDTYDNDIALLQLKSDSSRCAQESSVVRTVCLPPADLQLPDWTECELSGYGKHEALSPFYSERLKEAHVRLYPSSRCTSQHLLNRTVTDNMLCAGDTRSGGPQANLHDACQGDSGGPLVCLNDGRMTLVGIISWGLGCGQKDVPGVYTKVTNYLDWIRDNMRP
- protocol: colorimetric enzyme inhibition assay, tPA (N-methylsulfonyl-D-Phe-Gly-Arg-pNA)
- Assay type: biochemical
- condition-info: from IC50 by Cheng-Prusoff; n.a. = not active, <80% inhibition at 20 µM
observation-type: Ki tPA

In the examples that follow, each entry is paired with its recorded Ki tPA.
{"compound": "CC(=O)NCC(=O)N[C@H](C(=O)N[C@@H](C)C(=O)N[C@@H](Cc1cccc(NC(=N)N)c1)C(=O)c1nc2ccccc2s1)[C@H](C)O", "Ki tPA": "did not show inhibition"}
{"compound": "CC(=O)NCC(=O)NC(C(=O)NC(C)C(=O)NC(CCCNC(=N)N)C(=O)c1nc2ccccc2s1)C(C)O [Compound 14a, Ac-Gly-L-Thr-L-Ala-L-Arg-kbt]", "Ki tPA": "did not show inhibition"}
{"compound": "CC(=O)NCC(=O)NC(C(=O)NC(C)C(=O)NC(Cc1ccc(NC(=N)N)cc1)C(=O)c1nc2ccccc2s1)C(C)O (centres unmarked)", "Ki tPA": "did not inhibit"}
{"compound": "CC(=O)NCC(=O)NC(C(=O)NC(C)C(=O)NC(CCCCNC(=N)N)C(=O)c1nc2ccccc2s1)C(C)O (centres unmarked)", "Ki tPA": "did not show inhibition"}

# evaluate next
Lookup: Reported Ki tPA, compound CC(=O)NCC(=O)NC(C(=O)NC(C)C(=O)NC(CC1CCC(NC(=N)N)CC1)C(=O)c1nc2ccccc2s1)C(C)O (centres unmarked) : ____
Found: did not inhibit

---

- test-target: matriptase (Homo sapiens, UniProt Q9Y5Y6)
- Construct: catalytic domain of matriptase (uniport: Q9Y5Y6 aa 596–855); hexa-histidine (N); made in house; host or cells: Escherichia coli BL21 Gold (DE3)
- Sequence (Q9Y5Y6 596-855): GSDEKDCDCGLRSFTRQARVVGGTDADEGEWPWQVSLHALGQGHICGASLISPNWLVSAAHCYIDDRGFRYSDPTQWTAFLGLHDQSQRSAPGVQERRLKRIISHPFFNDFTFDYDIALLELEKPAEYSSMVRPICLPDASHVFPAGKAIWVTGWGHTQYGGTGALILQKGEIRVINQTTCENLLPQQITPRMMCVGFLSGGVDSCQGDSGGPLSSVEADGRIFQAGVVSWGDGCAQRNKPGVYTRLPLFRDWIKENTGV
- protocol: fluorometric enzyme inhibition assay, matriptase (Boc-Leu-Arg-Arg-AMC)
- Type: biochemical
- condition-info: quotient Ki matriptase / Ki TMPRSS2
observation-type: Selectivity index [SI] Matriptase

In the examples that follow, each entry is paired with its recorded Selectivity index [SI] Matriptase.
{"compound": "CC(=O)N[C@@H](CC(N)=O)C(=O)N[C@@H](Cc1ccccc1)C(=O)N[C@@H](Cc1ccc(NC(=N)N)cc1)C(=O)c1nc2ccccc2s1", "Selectivity index [SI] Matriptase": 630}
{"compound": "CC(=O)N[C@@H](CC(N)=O)C(=O)N1CCC[C@H]1C(=O)N[C@@H](Cc1ccc(NC(=N)N)cc1)C(=O)c1nc2ccccc2s1", "Selectivity index [SI] Matriptase": 12}

1: CC(=O)N[C@@H](CC(N)=O)C(=O)N[C@@H](CC1CCCCC1)C(=O)N[C@@H](Cc1ccc(NC(=N)N)cc1)C(=O)c1nc2ccccc2s1
2: CC(=O)N[C@@H](Cc1ccccc1)C(=O)N[C@@H](Cc1ccc(NC(=N)N)cc1)C(=O)c1nc2ccccc2s1
3: CC(=O)N[C@@H](CC(N)=O)C(=O)N1CCC[C@H]1C(=O)N[C@@H](CC1CCC(NC(=N)N)CC1)C(=O)c1nc2ccccc2s1 (some centres unmarked)
Lookup: Parameters: sort_field (Selectivity index [SI] Matriptase), sort_dir (desc). Sort the labels as requested; that list is your answer.
Found: 2, 1, 3
(2: 289, 1: 98, 3: 27)

---

- test-target: thrombin (Homo sapiens, UniProt P00734)
- Construct: purchased Bio-techne
- protocol: fluorometric enzyme inhibition assay, thrombin (Z-Gly-Gly-Arg-AMC)
- Assay type: biochemical
- condition-info: from IC50 by Cheng-Prusoff; n.a. = not active, <80% inhibition at 20 µM

{"molecule": "CC(=O)NCC(=O)NC(C(=O)NC(C)C(=O)NC(Cc1ccc(NC(=N)N)cc1)C(=O)c1nc2ccccc2s1)C(C)O (stereo not shown)", "Ki Thrombin": "did not inhibit"}
{"molecule": "CC(=O)NCC(=O)NC(C(=O)NC(C)C(=O)NC(CCCCNC(=N)N)C(=O)c1nc2ccccc2s1)C(C)O (stereo not shown)", "Ki Thrombin": "did not show inhibition"}
{"molecule": "CC(=O)NCC(=O)NC(C(=O)NC(C)C(=O)NC(CC1CCC(NC(=N)N)CC1)C(=O)c1nc2ccccc2s1)C(C)O (stereo not shown)", "Ki Thrombin": "did not inhibit"}
{"molecule": "CC(=O)NCC(=O)N[C@H](C(=O)N[C@@H](C)C(=O)N[C@@H](Cc1cccc(NC(=N)N)c1)C(=O)c1nc2ccccc2s1)[C@H](C)O", "Ki Thrombin": "did not show inhibition"}

---

- test-target: matriptase (Homo sapiens, UniProt Q9Y5Y6)
- Construct: catalytic domain of matriptase (uniport: Q9Y5Y6 aa 596–855); hexa-histidine (N); made in house; host or cells: Escherichia coli BL21 Gold (DE3)
- protocol: fluorometric enzyme inhibition assay, matriptase (Boc-Leu-Arg-Arg-AMC)
- Assay type: biochemical
- condition-info: from IC50 by Cheng-Prusoff; n.a. = not active, <80% inhibition at 20 µM
pKi: −log10 of the molar value.
observation-type: pKi

{"compound": "CC(=O)NCC(=O)NC(C(=O)NC(C)C(=O)NC(CC1CCC(NC(=N)N)CC1)C(=O)c1nc2ccccc2s1)C(C)O (stereo not drawn) [Compound 38]", "observation-type": "pKi", "reported-measurement": 6.20}

A: CC(=O)N[C@@H](CC(N)=O)C(=O)N1CCC[C@H]1C(=O)N[C@@H](CC1CCC(NC(=N)N)CC1)C(=O)c1nc2ccccc2s1 (stereo partly drawn) [Compound 39]
B: CC(=O)N[C@@H](CC(N)=O)C(=O)N1CCC[C@H]1C(=O)N[C@@H](Cc1ccc(NC(=N)N)cc1)C(=O)c1nc2ccccc2s1 [Compound 30]
C: CC(=O)N[C@@H](CC(N)=O)C(=O)N[C@@H](Cc1ccccc1)C(=O)N[C@@H](Cc1ccc(NC(=N)N)cc1)C(=O)c1nc2ccccc2s1 [Compound 31]
D: CC(=O)NCC(=O)NC(C(=O)NC(C)C(=O)NC(CCCNC(=N)N)C(=O)c1nc2ccccc2s1)C(C)O [Compound 14a, Ac-Gly-L-Thr-L-Ala-L-Arg-kbt]
E: CC(=O)N[C@@H](CC(N)=O)C(=O)N[C@@H](CC1CCCCC1)C(=O)N[C@@H](Cc1ccc(NC(=N)N)cc1)C(=O)c1nc2ccccc2s1 [Compound 32]
Lookup: Parameters: sort_field (pKi), sort_dir (desc). Sort the labels as requested; that list is your answer.
Found: D, B, C, A, E

---

- protocol: Parallel Artificial Membrane Permeation Assay (PAMPA)
- Type: in vitro ADME
- condition-info: PAMPA; TRIS 50 mM pH 7.4, 5% DMSO, 7 h at room temperature; read-out: PAMPA permeability Pe
observation-type: Papp at 7 h

Lookup: Reported Papp at 7 h, compound CC(=O)NCC(=O)NC(C(=O)NC(C)C(=O)NC(CC1CCC(NC(=N)N)CC1)C(=O)c1nc2ccccc2s1)C(C)O (stereo not shown) : ____
Found: < 1 ×10⁻⁶ cm/s

These data points were gathered from paper PMC10855164.
